Measurement target: human mesothelin (MSLN) (human) (UniProt Q13421)
Experiment: BLI (Octet), bsAb in 1+1 Fab-scFv-Fc format
Quantity: Kd (nM)
Provide the reading as a plain figure in nM.

XENP32566 (bispecific antibody, part only; not given: anti-CD3 scFv-Fc arm, constant regions, V domains shown, not shown: another chain or arm of the molecule; a dimerising Fc or GST; small tags and cut ends) VH: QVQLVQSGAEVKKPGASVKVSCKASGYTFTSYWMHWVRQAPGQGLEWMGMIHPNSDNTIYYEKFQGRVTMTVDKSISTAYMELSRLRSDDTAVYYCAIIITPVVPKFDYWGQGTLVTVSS VL: DIVMTQSPDSLAVSLGERATINCKASHDVGTSVAWYQQKPGQSPKLLIYWASTRHSGVPDRFTGSGSGTDFTLTISSLQAEDVAVYFCQQYSSYPLTFGAGTKLEIK : 0.18
XENP32570 (bispecific antibody, part only; not given: anti-CD3 scFv-Fc arm, constant regions, V domains shown, not shown: another chain or arm of the molecule; a dimerising Fc or GST; small tags and cut ends) VH: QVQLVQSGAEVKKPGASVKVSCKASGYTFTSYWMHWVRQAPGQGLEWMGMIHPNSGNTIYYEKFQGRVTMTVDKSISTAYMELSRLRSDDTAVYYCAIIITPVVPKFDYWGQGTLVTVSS VL: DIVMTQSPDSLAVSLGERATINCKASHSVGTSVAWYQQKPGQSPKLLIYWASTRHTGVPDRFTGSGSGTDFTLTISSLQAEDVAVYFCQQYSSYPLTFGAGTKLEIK : 0.103

Please turn your attention to the following entry.
State its Kd: XENP31701 (bispecific antibody, part only; not given: anti-CD3 scFv-Fc arm, constant regions, V domains shown, not shown: another chain or arm of the molecule; a dimerising Fc or GST; small tags and cut ends) VH: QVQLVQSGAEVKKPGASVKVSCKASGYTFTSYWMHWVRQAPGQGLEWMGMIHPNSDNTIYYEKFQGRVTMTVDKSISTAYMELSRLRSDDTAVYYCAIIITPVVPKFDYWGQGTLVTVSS VL: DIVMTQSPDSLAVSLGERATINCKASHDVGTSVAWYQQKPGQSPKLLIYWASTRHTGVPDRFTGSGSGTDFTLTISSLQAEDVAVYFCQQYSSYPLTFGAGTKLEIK 0.0805

Cited source for all entries: patent US20230340128A1
